- Tested on: Pseudomonas aeruginosa
- Test Description: Compound was tested for antibacterial activity against gram negative Pseudomonas aeruginosa AK109
- Format: functional
- Details: Pseudomonas aeruginosa; read-out: MIC
Parameter: MIC (µg/mL)
Answers are plain numbers, in µg/mL.

Use these answered entries as a reference point.
| Compound Structure | MIC [µg/mL] |
| --- | --- |
| COc1c(N2C[C@@H](CO)[C@H](C(F)(F)F)C2)c(F)cc2c(=O)c(C(=O)O)cn(C3CC3)c12 | 6.25 |
| COc1c(N2C[C@@H](C(F)(F)F)[C@@H](N)C2)c(F)cc2c(=O)c(C(=O)O)cn(C3CC3)c12.Cl | 6.25 |
| COc1c(N2C[C@H](CO)[C@H](C(F)(F)F)C2)c(F)cc2c(=O)c(C(=O)O)cn(C3CC3)c12 | 3.13 |
| COc1c(N2C[C@H](CN)[C@@H](C(F)(F)F)C2)c(F)cc2c(=O)c(C(=O)O)cn(C3CC3)c12.Cl | 6.25 |
| COc1c(N2C[C@@H](CN)[C@H](C)C2)c(F)cc2c(=O)c(C(=O)O)cn(C3CC3)c12.Cl | 0.78 |

# map each compound to its MIC
1. COc1c(N2C[C@H](CN)[C@H](C(F)(F)F)C2)c(F)cc2c(=O)c(C(=O)O)cn(C3CC3)c12.Cl
2. COc1c(N2C[C@@H](N)[C@H](C(F)(F)F)C2)c(F)cc2c(=O)c(C(=O)O)cn(C3CC3)c12.O=C(O)C(F)(F)F

1. 0.78
2. 6.25

---

- Test system: Acinetobacter calcoaceticus
- Test Description: Compound was tested for antibacterial activity against gram negative Acinetobacter calcoaceticus No.4
- Type: functional
- Details: Acinetobacter calcoaceticus; read-out: MIC
Parameter: MIC (µg/mL)
Give bare numbers, in µg/mL.

Use these answered entries as a reference point.
| Compound Structure | MIC, µg/mL |
| --- | --- |
| COc1c(N2C[C@@H](CO)[C@H](C(F)(F)F)C2)c(F)cc2c(=O)c(C(=O)O)cn(C3CC3)c12 | 0.78 |
| COc1c(N2C[C@H](CN)[C@@H](C(F)(F)F)C2)c(F)cc2c(=O)c(C(=O)O)cn(C3CC3)c12.Cl | 0.2 |
| COc1c(N2C[C@@H](C(F)(F)F)[C@@H](N)C2)c(F)cc2c(=O)c(C(=O)O)cn(C3CC3)c12.Cl | 0.2 |

We now examine a further compound.
Give the measured MIC of COc1c(N2C[C@@H](CN)[C@H](C)C2)c(F)cc2c(=O)c(C(=O)O)cn(C3CC3)c12.Cl .
0.2

---

Field: log10 MIC. Provide a value for each of the compounds that follow.
- Tested on: Staphylococcus aureus
- Test Description: Compound was tested for antibacterial activity against gram positive Staphylococcus aureus JS-1
- Format: functional
- Details: Staphylococcus aureus; read-out: MIC
# values: log10(MIC), units mg/L

Use these answered entries as a reference point.
| Compound | Assayed System | log10 MIC |
| --- | --- | --- |
| CC1COc2c(N3CCN(C)CC3)c(F)cc3c(=O)c(C(=O)O)cn1c23 (configuration not stated) | Staphylococcus aureus | -0.41 |
| COc1c(N2CC[C@@](CN)(C(F)(F)F)C2)c(F)cc2c(=O)c(C(=O)O)cn(C3CC3)c12.Cl | Staphylococcus aureus | -1.00 |
| COc1c(N2C[C@@H](CO)[C@H](C(F)(F)F)C2)c(F)cc2c(=O)c(C(=O)O)cn(C3CC3)c12 | Staphylococcus aureus | -1.89 |
| COc1c(N2C[C@@H](C(F)(F)F)[C@@H](N)C2)c(F)cc2c(=O)c(C(=O)O)cn(C3CC3)c12.Cl | Staphylococcus aureus | -1.30 |
| COc1c(N2CC[C@@](CO)(C(F)(F)F)C2)c(F)cc2c(=O)c(C(=O)O)cn(C3CC3)c12 | Staphylococcus aureus | -1.30 |

# map each compound to its log10 MIC
1. COc1c(N2C[C@@H](N)[C@H](C(F)(F)F)C2)c(F)cc2c(=O)c(C(=O)O)cn(C3CC3)c12.O=C(O)C(F)(F)F
2. NC1CCN(c2nc3c(cc2F)c(=O)c(C(=O)O)cn3-c2ccc(F)cc2F)C1 (configuration not stated)
3. COc1c(N2C[C@H](CN)[C@@H](C(F)(F)F)C2)c(F)cc2c(=O)c(C(=O)O)cn(C3CC3)c12.Cl

1: -1.30; 2: -1.30; 3: -1.89

Give the measured log10 MIC of COc1c(N2CC[C@@](N)(C(F)(F)F)C2)c(F)cc2c(=O)c(C(=O)O)cn(C3CC3)c12.Cl .
-1.60

Cited source: ChEMBL document CHEMBL1130625
